biological target: Muscarinic acetylcholine receptor M5 (Homo sapiens); assay: Displacement of [3H]-QNB/[3H]-NMS from human muscarinic M5 receptor expressed in stable CHO cell membranes after 90 mins by microbeta scintillation counting method; conditions: read-out: Ki
Readout Name: pKi
The meaning of pKi here: minus log10 of the concentration in molar units.

Value sought: pKi, system Muscarinic acetylcholine receptor M5 (Homo sapiens), item CCCN(CC[C@]1(O)C[C@H](NC(=O)c2ccc3ccccc3c2)C1)[C@H]1CCc2nc(N)sc2C1 . Result: 5.64

====

target: D(4) dopamine receptor (Homo sapiens, UniProt P21917); assay: Displacement of [3H]-N-methylspiperone from recombinant human D4 receptor stably expressed in HEK cell membranes measured after 90 mins by microbeta scintillation counting method
Readout Name: Ki (µM)
Write down the numeric answer in µM and omit the unit.

Value sought: Ki, system D(4) dopamine receptor (Homo sapiens, UniProt P21917), item CCCN(CC[C@]1(O)C[C@H](NC(=O)c2ccc3ccccc3c2)C1)[C@H]1CCc2nc(N)sc2C1 . Result: 0.045

====

target: 5-hydroxytryptamine receptor 2C (Homo sapiens) (UniProt P28335); experiment: Displacement of [3H]-Mesulergine from recombinant human 5HT2C receptor expressed in HEK cell membranes at 10 uM measured after 90 mins by microbeta scintillation counting method relative to control; conditions: probe [3H]-Mesulergine
Sequence (P28335 whole entry, looked up): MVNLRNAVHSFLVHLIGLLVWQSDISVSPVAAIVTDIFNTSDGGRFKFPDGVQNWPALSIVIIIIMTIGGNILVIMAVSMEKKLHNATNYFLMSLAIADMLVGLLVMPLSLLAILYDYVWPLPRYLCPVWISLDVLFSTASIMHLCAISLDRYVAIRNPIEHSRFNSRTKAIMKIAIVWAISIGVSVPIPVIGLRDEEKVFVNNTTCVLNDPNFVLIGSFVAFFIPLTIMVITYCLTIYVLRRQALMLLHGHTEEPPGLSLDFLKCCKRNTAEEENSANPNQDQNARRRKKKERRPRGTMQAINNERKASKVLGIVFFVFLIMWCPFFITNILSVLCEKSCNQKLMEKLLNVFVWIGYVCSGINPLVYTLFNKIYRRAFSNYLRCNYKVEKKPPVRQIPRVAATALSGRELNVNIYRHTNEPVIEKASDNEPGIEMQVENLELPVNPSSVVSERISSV
Readout Name: inhibition at […], 10 µM

| Compound | inhibition at […], 10 µM |
| --- | --- |
| CCCN[C@H]1CCc2nc(N)sc2C1 [PRAMIPEXOLE] | < 50% |

Consider now this further compound.
The compound CCCN(CC[C@]1(O)C[C@H](NC(=O)c2ccc3ccccc3c2)C1)[C@H]1CCc2nc(N)sc2C1 showed inhibition at […], 10 µM equal to > 50%

====

biological target: Sodium-dependent serotonin transporter (Homo sapiens, UniProt P31645); experiment: Displacement of [3H]-citalopram from human SERT receptor expressed in stable HEK cell membranes after 90 mins by microbeta scintillation counting method; conditions: read-out: Ki
Sequence (P31645 whole entry): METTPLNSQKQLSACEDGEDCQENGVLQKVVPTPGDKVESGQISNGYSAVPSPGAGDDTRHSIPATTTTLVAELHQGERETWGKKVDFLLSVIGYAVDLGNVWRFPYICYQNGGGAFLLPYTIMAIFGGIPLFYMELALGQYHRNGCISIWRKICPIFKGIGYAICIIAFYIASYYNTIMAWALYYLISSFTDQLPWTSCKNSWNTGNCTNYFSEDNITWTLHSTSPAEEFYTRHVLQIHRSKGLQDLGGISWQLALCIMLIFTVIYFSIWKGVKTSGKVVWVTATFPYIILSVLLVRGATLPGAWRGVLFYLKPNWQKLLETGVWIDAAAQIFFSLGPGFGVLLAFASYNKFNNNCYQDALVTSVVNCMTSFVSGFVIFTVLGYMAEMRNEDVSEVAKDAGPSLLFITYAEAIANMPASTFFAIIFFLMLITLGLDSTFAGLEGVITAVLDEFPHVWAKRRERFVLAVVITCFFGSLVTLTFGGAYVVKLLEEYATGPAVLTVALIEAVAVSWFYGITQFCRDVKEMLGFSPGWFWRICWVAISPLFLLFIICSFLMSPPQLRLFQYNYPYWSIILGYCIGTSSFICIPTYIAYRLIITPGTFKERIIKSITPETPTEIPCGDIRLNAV
Readout Name: pKi
The meaning of pKi here: minus log10 of the concentration in molar units.

The compound CCCN(CC[C@]1(O)C[C@H](NC(=O)c2ccc3ccccc3c2)C1)[C@H]1CCc2nc(N)sc2C1 showed pKi equal to 7.49

====

biological target: 5-hydroxytryptamine receptor 1E (Homo sapiens)
Sequence (P28566 whole entry): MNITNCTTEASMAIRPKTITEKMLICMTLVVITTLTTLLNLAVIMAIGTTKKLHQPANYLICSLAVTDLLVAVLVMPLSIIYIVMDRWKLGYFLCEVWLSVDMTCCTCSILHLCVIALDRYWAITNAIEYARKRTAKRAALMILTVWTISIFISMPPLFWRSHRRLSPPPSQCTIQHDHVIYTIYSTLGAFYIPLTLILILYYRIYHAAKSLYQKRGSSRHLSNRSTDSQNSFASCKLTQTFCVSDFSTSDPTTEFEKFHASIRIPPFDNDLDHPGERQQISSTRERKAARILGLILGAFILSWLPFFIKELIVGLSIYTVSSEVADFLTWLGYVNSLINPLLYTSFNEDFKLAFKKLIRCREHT
Readout Name: Ki

The compound CCCN[C@H]1CCc2nc(N)sc2C1 [PRAMIPEXOLE] showed Ki equal to > 10 µM

====

biological target: D(2) dopamine receptor (Homo sapiens, UniProt P14416); assay: Antagonist activity at human D2R expressed in CHOK1 cells assessed as inhibition of dopamine-induced beta-arrestin recruitment measured after 120 mins by beta-galactosidase based PathHunter assay relative to sulpiride; type: cell-based; details: 2 h, read-out: Imax
Sequence (P14416 whole entry): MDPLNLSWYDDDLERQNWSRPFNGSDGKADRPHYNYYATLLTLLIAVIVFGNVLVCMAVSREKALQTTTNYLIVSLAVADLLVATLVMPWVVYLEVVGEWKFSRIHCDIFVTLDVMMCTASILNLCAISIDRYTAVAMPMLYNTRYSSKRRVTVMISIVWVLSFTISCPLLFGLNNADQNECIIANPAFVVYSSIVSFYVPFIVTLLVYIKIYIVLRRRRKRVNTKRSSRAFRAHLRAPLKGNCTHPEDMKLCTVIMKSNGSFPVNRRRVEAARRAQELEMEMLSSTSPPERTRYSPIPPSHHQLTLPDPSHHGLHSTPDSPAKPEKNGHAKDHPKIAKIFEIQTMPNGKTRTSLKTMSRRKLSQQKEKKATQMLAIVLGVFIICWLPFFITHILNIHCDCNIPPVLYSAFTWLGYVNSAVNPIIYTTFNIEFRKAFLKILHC
Readout Name: Emax (%)
Write down the numeric answer in % and omit the unit.

Some molecules with known Emax results, for comparison:
| Molecule | Readout Name | Reported |
| --- | --- | --- |
| O=C(c1cc2ccccc2[nH]1)N1CCN(CCOc2ccccc2)CC1 | Emax | 37 |
| COc1ccc(OCCN2CCN(C(=O)c3ccc(OC)cc3)CC2)cc1 | Emax | 88 |
| CCc1ccc(C(=O)N2CCN(CCOc3ccc(OC)cc3)CC2)cc1 | Emax | 106 |
| COc1ccc(OCCN2CCN(C(=O)c3ccc(Cl)cc3)CC2)cc1 | Emax | 107 |

The molecule O=C(c1cc2ccccc2[nH]1)N1CCN(CCOc2ccc(F)cc2)CC1 showed Emax equal to 72

The molecule COc1cccc(OCCN2CCN(C(=O)c3cc4cnccc4[nH]3)CC2)c1 showed Emax equal to 30

The molecule Cc1ccc(OCCN2CCN(C(=O)c3cc4ccccc4[nH]3)CC2)cc1C showed Emax equal to 88

====

Readings of inhibition at […], 10 µM for the listed compounds
target: kappa opioid receptor (KOR) (Homo sapiens, UniProt P41145); test: Displacement of [3H]-U69593 from KOR (unknown origin) at 10 uM measured after 90 mins by microbeta scintillation counting method relative to control; settings: probe [3H]-U69593
Sequence (P41145 whole entry): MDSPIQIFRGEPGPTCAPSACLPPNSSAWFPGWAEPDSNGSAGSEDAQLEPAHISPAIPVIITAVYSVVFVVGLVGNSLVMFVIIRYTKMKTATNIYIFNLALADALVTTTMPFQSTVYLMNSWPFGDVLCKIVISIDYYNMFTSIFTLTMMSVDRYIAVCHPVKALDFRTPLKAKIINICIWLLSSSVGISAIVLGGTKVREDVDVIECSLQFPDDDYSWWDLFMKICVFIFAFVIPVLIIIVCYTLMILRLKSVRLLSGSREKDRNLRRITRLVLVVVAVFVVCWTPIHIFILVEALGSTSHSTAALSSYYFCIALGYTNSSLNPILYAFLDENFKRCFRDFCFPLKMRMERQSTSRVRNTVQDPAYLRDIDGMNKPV

The compound CCCN[C@H]1CCc2nc(N)sc2C1 [PRAMIPEXOLE] showed inhibition at […], 10 µM equal to < 50%

The compound CCCN(CC[C@]1(O)C[C@H](NC(=O)c2ccc3ccccc3c2)C1)[C@H]1CCc2nc(N)sc2C1 showed inhibition at […], 10 µM equal to > 50%

====

molecular target: noradrenaline transporter (NET) (Homo sapiens, UniProt P23975); experiment: Displacement of [3H]-Nisoxetine from human NET receptor expressed in stable HEK cell membranes at 10 uM after 90 mins by microbeta scintillation counting method relative to control; conditions: stable HEK cell membranes expressing human NET, probe [3H]-Nisoxetine
Sequence (P23975 whole entry): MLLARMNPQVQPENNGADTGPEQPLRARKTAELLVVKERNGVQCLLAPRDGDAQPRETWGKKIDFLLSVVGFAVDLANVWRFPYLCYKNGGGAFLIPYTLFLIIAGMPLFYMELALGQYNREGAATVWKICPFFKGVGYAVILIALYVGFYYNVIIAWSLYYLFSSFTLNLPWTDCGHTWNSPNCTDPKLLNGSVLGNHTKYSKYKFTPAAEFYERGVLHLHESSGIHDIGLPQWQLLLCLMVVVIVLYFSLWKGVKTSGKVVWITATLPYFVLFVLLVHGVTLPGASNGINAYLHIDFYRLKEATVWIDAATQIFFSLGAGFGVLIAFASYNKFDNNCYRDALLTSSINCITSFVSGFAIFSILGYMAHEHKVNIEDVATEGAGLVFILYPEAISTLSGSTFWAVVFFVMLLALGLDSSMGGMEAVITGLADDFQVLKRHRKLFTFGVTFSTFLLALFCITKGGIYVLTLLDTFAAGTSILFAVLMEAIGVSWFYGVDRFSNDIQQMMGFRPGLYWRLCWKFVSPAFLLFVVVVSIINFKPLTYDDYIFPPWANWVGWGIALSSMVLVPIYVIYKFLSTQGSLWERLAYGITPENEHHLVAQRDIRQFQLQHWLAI
Readings of inhibition at […], 10 µM for the listed compounds

| Compound | inhibition at […], 10 µM |
| --- | --- |
| CCCN(CC[C@]1(O)C[C@H](NC(=O)c2ccc3ccccc3c2)C1)[C@H]1CCc2nc(N)sc2C1 | > 50% |

Value sought: inhibition at […], 10 µM, system noradrenaline transporter (NET) (Homo sapiens, UniProt P23975), item CCCN[C@H]1CCc2nc(N)sc2C1 [PRAMIPEXOLE] . Result: < 50%

====

target: delta opioid receptor (DOR) (Homo sapiens, UniProt P41143); assay: Displacement of [3H]-DADLE from recombinant human DOR stably expressed in HEK cell membranes at 10 uM measured after 90 mins by microbeta scintillation counting method relative to control; conditions: HEK cell membranes stably expressing recombinant human DOR, probe [3H]-DADLE
Sequence (P41143 whole entry): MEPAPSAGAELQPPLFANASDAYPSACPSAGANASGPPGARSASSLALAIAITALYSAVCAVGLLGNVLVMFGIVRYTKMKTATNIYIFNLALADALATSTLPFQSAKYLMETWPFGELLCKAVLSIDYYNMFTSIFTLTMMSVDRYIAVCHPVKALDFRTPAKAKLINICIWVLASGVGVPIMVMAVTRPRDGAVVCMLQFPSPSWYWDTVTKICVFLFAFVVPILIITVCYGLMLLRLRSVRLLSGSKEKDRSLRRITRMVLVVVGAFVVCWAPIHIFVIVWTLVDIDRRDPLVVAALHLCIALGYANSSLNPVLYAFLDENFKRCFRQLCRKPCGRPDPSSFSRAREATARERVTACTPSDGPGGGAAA
Readout Name: inhibition at […], 10 µM

| Compound | Reported |
| --- | --- |
| CCCN[C@H]1CCc2nc(N)sc2C1 [PRAMIPEXOLE] | > 50% |

Consider now this further compound.
The compound CCCN(CC[C@]1(O)C[C@H](NC(=O)c2ccc3ccccc3c2)C1)[C@H]1CCc2nc(N)sc2C1 showed inhibition at […], 10 µM equal to < 50%

====

Readings of inhibition at […], 10 µM for the listed compounds
Target: muscarinic M1 receptor (Homo sapiens, UniProt P11229)
Sequence (P11229 whole entry): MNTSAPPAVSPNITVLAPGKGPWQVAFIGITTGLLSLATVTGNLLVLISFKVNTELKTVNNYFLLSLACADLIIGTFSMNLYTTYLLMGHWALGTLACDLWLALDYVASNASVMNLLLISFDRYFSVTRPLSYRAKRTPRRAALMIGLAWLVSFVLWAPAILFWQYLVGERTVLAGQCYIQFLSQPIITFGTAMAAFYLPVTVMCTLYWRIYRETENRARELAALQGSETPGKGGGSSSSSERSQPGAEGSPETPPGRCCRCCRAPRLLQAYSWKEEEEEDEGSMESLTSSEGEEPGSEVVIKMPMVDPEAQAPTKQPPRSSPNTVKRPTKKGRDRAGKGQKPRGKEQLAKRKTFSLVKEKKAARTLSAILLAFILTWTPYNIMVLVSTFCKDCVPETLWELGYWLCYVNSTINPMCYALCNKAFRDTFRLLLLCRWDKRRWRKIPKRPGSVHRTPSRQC
Assay: Displacement of [3H]-QNB/[3H]-NMS from human muscarinic M1 receptor expressed in stable CHO cell membranes at 10 uM after 90 mins by microbeta scintillation counting method relative to control
Settings: probe [3H]-QNB/[3H]-NMS

The compound CCCN[C@H]1CCc2nc(N)sc2C1 [PRAMIPEXOLE] showed inhibition at […], 10 µM equal to > 50%

The compound CCCN(CC[C@]1(O)C[C@H](NC(=O)c2ccc3ccccc3c2)C1)[C@H]1CCc2nc(N)sc2C1 showed inhibition at […], 10 µM equal to < 50%

====

target: Muscarinic acetylcholine receptor M4 (Homo sapiens, UniProt P08173); assay: Displacement of [3H]-QNB/[3H]-NMS from human muscarinic M4 receptor expressed in stable CHO cell membranes after 90 mins by microbeta scintillation counting method; details: read-out: Ki
Sequence (P08173 whole entry): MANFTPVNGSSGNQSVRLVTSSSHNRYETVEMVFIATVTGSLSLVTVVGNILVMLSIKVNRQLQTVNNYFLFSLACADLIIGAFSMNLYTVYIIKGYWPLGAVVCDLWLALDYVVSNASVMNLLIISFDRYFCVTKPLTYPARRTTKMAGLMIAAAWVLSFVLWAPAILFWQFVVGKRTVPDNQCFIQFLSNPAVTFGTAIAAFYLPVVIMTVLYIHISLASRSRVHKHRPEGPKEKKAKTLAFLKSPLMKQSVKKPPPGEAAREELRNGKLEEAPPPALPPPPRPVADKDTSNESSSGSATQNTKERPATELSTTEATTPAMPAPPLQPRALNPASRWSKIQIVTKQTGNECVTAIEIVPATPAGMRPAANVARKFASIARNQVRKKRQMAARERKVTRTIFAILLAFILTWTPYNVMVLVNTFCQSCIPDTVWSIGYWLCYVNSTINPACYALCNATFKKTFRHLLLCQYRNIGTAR
Readout Name: Ki
The reply should read as a number followed by its unit.

The compound CCCN(CC[C@]1(O)C[C@H](NC(=O)c2ccc3ccccc3c2)C1)[C@H]1CCc2nc(N)sc2C1 showed Ki equal to 2.28 µM

====

target: UniProt:P35367; experiment: Displacement of [3H]-pyrilamine from human histamine H1 receptor expressed in stable HEK cell membranes after 90 mins by microbeta scintillation counting method; settings: read-out: Ki
Sequence (P35367 whole entry): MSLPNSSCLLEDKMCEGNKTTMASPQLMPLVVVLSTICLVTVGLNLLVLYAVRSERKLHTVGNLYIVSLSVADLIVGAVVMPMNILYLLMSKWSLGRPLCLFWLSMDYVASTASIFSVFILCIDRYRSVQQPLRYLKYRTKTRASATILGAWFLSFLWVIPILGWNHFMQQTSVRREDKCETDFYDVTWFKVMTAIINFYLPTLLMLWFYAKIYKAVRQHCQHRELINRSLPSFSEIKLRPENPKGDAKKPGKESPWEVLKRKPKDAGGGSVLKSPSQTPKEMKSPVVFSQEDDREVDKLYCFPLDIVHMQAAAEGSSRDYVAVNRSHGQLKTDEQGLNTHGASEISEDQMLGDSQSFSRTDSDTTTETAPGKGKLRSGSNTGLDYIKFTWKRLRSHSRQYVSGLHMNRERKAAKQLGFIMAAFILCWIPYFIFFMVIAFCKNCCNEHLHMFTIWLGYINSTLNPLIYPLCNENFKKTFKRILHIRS
Readout Name: Ki (nM)
Write down the numeric answer in nM and omit the unit.

The compound CCCN(CC[C@]1(O)C[C@H](NC(=O)c2ccc3ccccc3c2)C1)[C@H]1CCc2nc(N)sc2C1 showed Ki equal to 110

====

target: 5HT1D receptor (Homo sapiens); experiment: Displacement of [3H]5-CT from recombinant human 5HT1D receptor transiently expressed in HEKT cell membranes at 10 uM measured after 90 mins by microbeta scintillation counting method relative to control; conditions: probe [3H]5-CT
Sequence (P28221 whole entry): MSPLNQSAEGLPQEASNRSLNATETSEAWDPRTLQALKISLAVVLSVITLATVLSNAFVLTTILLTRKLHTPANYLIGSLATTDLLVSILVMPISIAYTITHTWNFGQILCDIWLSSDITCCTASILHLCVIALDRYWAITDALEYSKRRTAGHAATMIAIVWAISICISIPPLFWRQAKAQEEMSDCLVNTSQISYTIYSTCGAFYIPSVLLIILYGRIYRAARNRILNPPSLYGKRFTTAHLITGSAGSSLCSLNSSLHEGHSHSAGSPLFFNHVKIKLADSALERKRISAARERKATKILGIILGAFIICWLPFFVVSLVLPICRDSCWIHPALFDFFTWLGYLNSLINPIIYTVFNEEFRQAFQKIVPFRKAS
Readings of inhibition at […], 10 µM for the listed compounds

| Compound | inhibition at […], 10 µM |
| --- | --- |
| CCCN(CC[C@]1(O)C[C@H](NC(=O)c2ccc3ccccc3c2)C1)[C@H]1CCc2nc(N)sc2C1 | < 50% |

Consider now this further compound.
The compound CCCN[C@H]1CCc2nc(N)sc2C1 [PRAMIPEXOLE] showed inhibition at […], 10 µM equal to > 50%
